target_or_test_system: mu opiate receptor (MOR) (Rattus norvegicus)
Construct: from tissue; host or cells: striatum (membrane preparation)
Sequence (P33535 whole entry): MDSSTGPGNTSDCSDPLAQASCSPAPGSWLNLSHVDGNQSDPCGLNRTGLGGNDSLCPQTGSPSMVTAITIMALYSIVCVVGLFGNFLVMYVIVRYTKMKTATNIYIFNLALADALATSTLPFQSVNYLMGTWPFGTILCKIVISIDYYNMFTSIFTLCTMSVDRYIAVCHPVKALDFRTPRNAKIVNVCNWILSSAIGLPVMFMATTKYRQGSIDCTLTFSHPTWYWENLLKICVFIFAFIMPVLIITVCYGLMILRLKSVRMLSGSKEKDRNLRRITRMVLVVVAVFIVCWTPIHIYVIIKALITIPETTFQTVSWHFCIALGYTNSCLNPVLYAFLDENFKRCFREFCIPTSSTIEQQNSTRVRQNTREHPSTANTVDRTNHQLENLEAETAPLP
Type: biochemical
% DAMGO + BFNA values for the compounds below.
In your response, put the unit directly after the numeric value.

Below, 5 compounds whose answers are already recorded.
compound	% DAMGO + BFNA
COc1ccc(S(=O)(=O)N2CCC3(OCCN3S(=O)(=O)c3ccc(OC)cc3)C3CCCCC32)cc1 (centres unmarked) [Compound C0144M]	137.9%
CC(=O)c1ccc(S(=O)(=O)N2CCC3(CC2)OC(CN(C)C)CN3S(=O)(=O)c2ccc(C(C)=O)cc2)cc1 (centres unmarked) [Compound C0065]	119.5%
COc1ccc(OCC(O)CN2CCc3ccccc3C2)cc1 (centres unmarked) [Compound A0053]	46.2%
CC(=O)c1ccc(S(=O)(=O)N2CC(=O)NC23CCNCC3)cc1 [Compound C0086M]	692.3%
CNc1ccc(S(=O)(=O)N2CCC3(CC2)OCCN3S(=O)(=O)c2ccc(NC)cc2)cc1 [Compound C0024]	135.1%

Need % DAMGO + BFNA, item COc1c2c(cc3c1C(CC(=O)Cc1ccc(C#N)cc1)[N+](C)(C)CC3)OCO2 (centres unmarked) [Compound B0012]
278.5%

Same question for CS(=O)(=O)c1ccc(S(=O)(=O)N2CCC3(CC2)OCCN3S(=O)(=O)c2ccc(S(C)(=O)=O)cc2)cc1 [Compound C0009] please.
41.2%

Also OC(COc1ccc(Br)c(F)c1)CN1CCc2ccccc2C1 (centres unmarked) [Compound A0057] , if possible.
112.3%

* * *

target_or_test_system: mu opiate receptor (MOR) (Rattus norvegicus)
Construct: from tissue; host or cells: striatum (membrane preparation)
Format: biochemical
Method: To assess the mu opiate receptor (MOR) agonist activity of positive compounds from the FLNA screening, compounds were tested in a [^35S]GTPγS binding assay using striatal membranes. […] The immunocomplexes so formed were collected by incubation at 25° C. for 30 minutes with 40 μl of agarose-conjugated protein A/G beads and centrifugation at 5,000×g at 4° C. for 5 minutes. […] The radioactivity in the suspension was determined by liquid scintillation spectrometry.
In this scheme, each record receives a class according to its % DAMGO + BFNA; the ranges are low bracket = under 60%, middle bracket = from 60% up to 200%, high bracket = 200% and over

Below are worked cases with known answers.
compound	target_or_test_system	qualitative_label
COc1ccc(C(=O)CC2c3c(cc4c(c3OC)OCO4)CC[N+]2(C)C)cc1OC (stereo not drawn)	mu opiate receptor (MOR) (Rattus norvegicus)	low bracket
CC1CCC(C(C)C)C(OCC(O)CN2CCc3ccccc32)C1 (stereo not drawn)	mu opiate receptor (MOR) (Rattus norvegicus)	middle bracket
CC(=O)c1ccc(S(=O)(=O)N2CC(CN(C)C)OC23CCNCC3)cc1 (stereo not drawn) [Compound C0118M]	mu opiate receptor (MOR) (Rattus norvegicus)	middle bracket
CC1CCC(C(C)C)C(OCC(O)CN2CCCCC2)C1 (stereo not drawn)	mu opiate receptor (MOR) (Rattus norvegicus)	low bracket
COc1c2c(cc3c1C(CC(=O)c1ccc(O)c(C)c1)[N+](C)(C)CC3)OCO2 (stereo not drawn)	mu opiate receptor (MOR) (Rattus norvegicus)	middle bracket
CC1CCC(C(C)C)C(OCC(O)CN2CC(C)OC(C)C2)C1 (stereo not drawn) [Compound A0032-1]	mu opiate receptor (MOR) (Rattus norvegicus)	high bracket
O=[N+]([O-])c1ccc(S(=O)(=O)N2CCC3(CC2)NCCS3)cc1	mu opiate receptor (MOR) (Rattus norvegicus)	high bracket
COc1c2c(cc3c1C(CC(=O)c1ccc(C#N)cc1)[N+](C)(C)CC3)OCO2 (stereo not drawn)	mu opiate receptor (MOR) (Rattus norvegicus)	low bracket

--- query ---
Band assignment needed for O=S(=O)(c1ccccc1Oc1ccccc1)N1CCC2(CC1)NCCO2 [Compound C0149M-2] please.
middle bracket
